Molecular target: MINK1/MAP4K6 (Homo sapiens (Human))
Sequence (Q8N4C8 whole entry): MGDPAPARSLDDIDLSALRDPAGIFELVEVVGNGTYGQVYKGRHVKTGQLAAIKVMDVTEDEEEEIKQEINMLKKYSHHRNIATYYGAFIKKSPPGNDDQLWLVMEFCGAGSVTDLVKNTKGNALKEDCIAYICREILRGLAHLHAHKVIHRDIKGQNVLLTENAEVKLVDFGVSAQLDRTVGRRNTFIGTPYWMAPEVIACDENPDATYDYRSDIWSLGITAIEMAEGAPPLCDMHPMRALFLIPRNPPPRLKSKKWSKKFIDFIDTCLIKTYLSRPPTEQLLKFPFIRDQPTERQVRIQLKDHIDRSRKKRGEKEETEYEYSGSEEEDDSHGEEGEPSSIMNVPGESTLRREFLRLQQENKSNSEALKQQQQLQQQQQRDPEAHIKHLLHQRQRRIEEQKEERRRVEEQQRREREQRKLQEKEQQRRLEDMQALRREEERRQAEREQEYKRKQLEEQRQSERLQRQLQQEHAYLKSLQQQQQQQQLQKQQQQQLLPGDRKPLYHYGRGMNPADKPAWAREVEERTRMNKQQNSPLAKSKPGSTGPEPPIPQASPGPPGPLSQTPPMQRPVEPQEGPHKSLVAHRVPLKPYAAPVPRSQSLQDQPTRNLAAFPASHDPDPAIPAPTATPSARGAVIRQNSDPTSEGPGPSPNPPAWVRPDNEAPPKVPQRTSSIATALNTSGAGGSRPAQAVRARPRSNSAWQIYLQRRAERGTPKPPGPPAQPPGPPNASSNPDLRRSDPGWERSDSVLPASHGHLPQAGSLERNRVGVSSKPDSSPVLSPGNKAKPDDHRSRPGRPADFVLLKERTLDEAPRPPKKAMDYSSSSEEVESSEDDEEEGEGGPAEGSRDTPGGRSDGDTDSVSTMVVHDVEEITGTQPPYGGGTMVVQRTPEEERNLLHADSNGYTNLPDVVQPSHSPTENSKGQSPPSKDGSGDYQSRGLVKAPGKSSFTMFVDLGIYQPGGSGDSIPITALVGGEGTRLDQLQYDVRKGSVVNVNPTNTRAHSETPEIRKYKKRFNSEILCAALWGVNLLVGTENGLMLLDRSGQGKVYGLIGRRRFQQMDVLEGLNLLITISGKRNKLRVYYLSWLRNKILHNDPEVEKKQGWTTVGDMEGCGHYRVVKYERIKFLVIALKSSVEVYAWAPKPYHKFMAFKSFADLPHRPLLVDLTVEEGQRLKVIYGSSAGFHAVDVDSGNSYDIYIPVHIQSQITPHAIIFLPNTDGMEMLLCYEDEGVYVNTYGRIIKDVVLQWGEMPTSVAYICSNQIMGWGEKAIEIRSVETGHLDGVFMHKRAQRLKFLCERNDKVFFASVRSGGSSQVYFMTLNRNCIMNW
Experiment: Kinase selectivity panel: MINK1/MAP4K6
Assay type: biochemical
Conditions: read-out: pIC50 MINK1/MAP4K6 (converted)
Reported Endpoint: IC50 (nM)

Chem Smiles	Study System	Result
O=c1[nH]cnc2c1c(-c1ccc(OCCCN3CCOCC3)cc1)cn2-c1ccccc1	MINK1/MAP4K6 (Homo sapiens (Human))	6.31
O=c1[nH]cnc2c1c(-c1ccc(OCCO)cc1F)cn2-c1ccccc1	MINK1/MAP4K6 (Homo sapiens (Human))	7.94
COc1cccc(-c2cn(-c3ccccc3)c3nc[nH]c(=O)c23)c1	MINK1/MAP4K6 (Homo sapiens (Human))	6.61
O=C1NCCN1c1ccc(-c2cn(-c3ccccc3)c3nc[nH]c(=O)c23)cc1	MINK1/MAP4K6 (Homo sapiens (Human))	7.94
